test system: HOP-92 NSCLC; test: NCI-60 one-dose screen, 48 h (100 = growth as untreated, 0 = no growth, -100 = all killed); conditions: 10 µM unless noted
This is part of a sample that, as a whole, favours compounds with a hit. Of some 83,000 tested, about 20% had one in any assay.
Category scheme (growth): 0: < 60%; 1: ≥ 60% and < 80%; 2: ≥ 80%

Query block: Note: place this compound into its band. Item: CC(C)=CCC[C@](C)(O)[C@H]1CC[C@]2(C)[C@@H]1CC[C@@H]1[C@@]3(C)C/C(=C/c4ccc(Br)cc4)C(=O)C(C)(C)[C@@H]3CC[C@]12C
Result block: 1

Query block: Try the compound C[N+](C)(CCCCCC[N+](C)(C)C1c2ccccc2-c2ccccc21)C1c2ccccc2-c2ccccc21
Result block: 2

Query block: Try the compound Nc1nc2c(c(=O)[nH]1)C(c1ccc3c(c1)OCO3)C=C(C(=O)O)N2 (configuration not stated)
Result block: 2

Query block: Try the compound COc1cc2c(cc1-c1c(C)noc1C)ncc1nc(C3CC3)n([C@H](C)COC(F)F)c12
Result block: 0

Query block: Try the compound COC(=O)[C@]12CC[C@@H](C)[C@H](C)[C@@H]1C1=CC[C@@H]3[C@@]4(C)C=C(O)C(=O)C(C)=C4CC[C@@]3(C)[C@]1(C)CC2
Result block: 0

Query block: Try the compound C#CCN=C[C@]12CC[C@@H](C(=C)C)[C@@H]1[C@H]1CC[C@@H]3[C@@]4(C)CCC(=O)C(C)(C)[C@@H]4CC[C@@]3(C)[C@]1(C)CC2
Result block: 1

Query block: Try the compound N#CC1=C(N)Oc2c(c(N)nn2-c2ccccc2)C1c1ccc(Cl)cc1Cl (configuration not stated)
Result block: 2

Query block: Try the compound COc1ccc(C2NC(=O)Nc3ccccc32)c(OC)c1 (configuration not stated)
Result block: 2

Query block: Try the compound Oc1ccc(CCC2CCCC(CCc3ccc(OCCF)cc3)N2)cc1 (configuration not stated)
Result block: 1

Query block: Try the compound Brc1cnc2[nH]cc(-c3nnc(-c4ccccc4)o3)c2c1
Result block: 1

Query block: Try the compound C=C(C)[C@@H]1CC[C@]2(C(=O)N3CCCNCC3)CC[C@]3(C)[C@H](CC[C@@H]4[C@@]5(C)CCC(=O)C(C)(C)[C@@H]5CC[C@]43C)[C@@H]12
Result block: 0

Query block: Try the compound COc1ccccc1-n1cnc(N)c1C(=O)c1cc(OC)c(OC)c(OC)c1
Result block: 1

Query block: Try the compound O=C(c1ccccc1)C(CN1CCOCC1)c1ccccc1 (configuration not stated)
Result block: 0

Query block: Try the compound Nc1c(Cl)cc(N=Nc2ccccc2)cc1Cl
Result block: 0

Query block: Try the compound CC1(C)C(=O)/C(=C\c2ccco2)C[C@]2(C)[C@H]3CC[C@@H]4[C@@H](C(=O)/C=C/c5ccco5)CC[C@@]4(C)[C@]3(C)CC[C@@H]12
Result block: 0
